The measured values listed here are drawn from patent US20250002563A1.

target: RBDSARS-CoV (SARS-CoV S protein residues 318-510, C-terminal His-tag) (SARS-CoV, UniProt P59594 318-510); assay: ELISA
Measure: IC50

- Binder: "5p-5 (VHH) VHH: QVQLVESGGGLVQAGGSLRLSCAVSGRTGNRWPMGWFRQAPGKEREFVATISWSDSRTYYADSVKGRFTISRDNAKNTVFLQMASLKPEDTAVYYCAAATARVYGANWSSSNRDDYDSWGQGTQVTVSS"
  IC50: "10 to 100 nM"

Query string: Entry 5p-16 (VHH) VHH: DVQLVESGGGLVQAGGSLRLSCLASGRTFSNYAMAWFRQSPGKEREFVAVITSGRSTDYADSVKGRFTISRDNAKNTVYLQMNSLKPEDTAVYYCAADQAPLRFSYSLSRDKYDYWGQGTQVTVSS : reported IC50 = ?
Result string: 10 to 100 nM

Query string: Entry 5p-47 (VHH) VHH: DVQLVESGGGLVQAGGSLRLSCAASGRTFTFNRFAMGWFRQAPEKEREFVAAISRTGRSTEYADSVKGRFAISRDNTKNTVYLQMNSLKPEDTAVYYCAALEAPLLHLIATQRRQYEYWGQGTQVTVSS : reported IC50 = ?
Result string: 1000 to 8000 nM

Query string: Entry R113 (VHH) VHH: HVQLVESGGGLVQPGGSLRLSCAASGRSFNSYLMGWFRQAPGKEREFVAWISGSPHDIIRYRDSVKDRFTISRDNAKNTVYLQMNSLKPVDTAVYYCAVGSLRVGSFSPDYWGQGTQVTVSS : reported IC50 = ?
Result string: 10 to 100 nM
